- System: Carcinoma cell trouase
- Procedure details: Inhibition and re-activation of carcinoma cell trouase
- Type: biochemical
- Test context: carcinoma cell trouase
Quantity name: inhibition of trouase

> print(dat)
                                   molecule           tested.system          quantity.name  result
1  CC(C)C[C@H](NC(=O)[C@H]1O[C@@H]1C(=O)O)C(=O)NCCCCN=C(N)N  Carcinoma cell trouase  inhibition of trouase     not
2  CCCNC(=O)[C@H]1O[C@@H]1C(=O)N[C@H](C(=O)N1CCC[C@H]1C(=O)O)[C@@H](C)CC  Carcinoma cell trouase  inhibition of trouase     not
3  CO[C@@H]1[C@H](OC(=O)/C=C/C=C/C=C/C=C/C(=O)O)CC[C@]2(CO2)[C@H]1[C@@]1(C)O[C@@H]1CC=C(C)C  Carcinoma cell trouase  inhibition of trouase     not

----------
- Test system: Carcinoma cell trouase
- Procedure details: Inhibition and re-activation of carcinoma cell trouase
- Type: biochemical
- Test context: carcinoma cell trouase
Square brackets hold non-standard residues; d marks the D form. Peptide text beside a SMILES is read from it. * marks the point of attachment. Sta = CC(C)C[C@H](N)[C@@H](O)CC(=O)O; Isovaleryl = CC(C)CC(=O)*
Quantity name: inhibition of trouase

Compound	Quantity name	Result
CC(C)CC(=O)N[C@H](C(=O)N[C@H](C(=O)N[C@@H](CC(C)C)[C@@H](O)CC(=O)N[C@@H](C)C(=O)N[C@@H](CC(C)C)[C@@H](O)CC(=O)O)C(C)C)C(C)C [pepstatin] (Isovaleryl-VV[Sta]A[Sta]-OH)	inhibition of trouase	not
CC(=O)N[C@@H](CC(C)C)C(=O)N[C@@H](CC(C)C)C(=O)N[C@H](C=O)CCCNC(=N)N	inhibition of trouase	not
